- Tested on: SF-539 CNS cancer cells
- CONDITION DESCRIPTION: human, sf-539 cns cancer cells
MEASURED ENDPOINT: CC50

// query State CC50 on SF-539 CNS cancer cells. Entry: CCCC(=O)NC1CCc2cc(OC)c(OC)c(OC)c2-c2ccc(C(C)=O)cc21 (stereo not shown)
// result > 100 µM

---

- System: SNB-19 CNS cancer cells
- CONDITION DESCRIPTION: human, snb-19 cns cancer cells
MEASURED ENDPOINT: CC50

// query Name the recorded CC50 of the item CCCC(=O)NC1CCc2cc(OC)c(OC)c(OC)c2-c2ccc(C(C)=O)cc21 (stereo not shown) in your answer.
// result > 100 µM
